Assignment: determine reported Ki for the given compounds.

// compound CN1C2CCC1CC(OC(=O)c1cccc3[nH]cnc13)C2 (stereo in doubt; 24) , assay 5-hydroxytryptamine receptor 4 (Rattus norvegicus, UniProt Q62758), Ki value: > 10 µM

Hey, 5-hydroxytryptamine receptor 4 (Rattus norvegicus, UniProt Q62758) data for CN1C2CCCC1CC(NC(=O)c1cc(Cl)cc3nc[nH]c13)C2 (stereo not given) : Ki came out at > 1 µM

Per the reported 5-hydroxytryptamine receptor 4 (Rattus norvegicus, UniProt Q62758) data, CCC1CCN(C)C[C@@H]1NC(=O)c1cccc2nc[nH]c12 (stereo not given in full) has Ki of > 10 µM

5-hydroxytryptamine receptor 4 (Rattus norvegicus, UniProt Q62758) data for CN1C2CCC1CC(NC(=O)c1cccc3[nH]cnc13)C2 (stereo not given) ; its Ki: > 10 µM

# Ki measured on 5-hydroxytryptamine receptor 4 (Rattus norvegicus, UniProt Q62758) for item CN1C2CCCC1CC(NC(=O)c1cccc3[nH]cnc13)C2 (stereo not given) = > 10 µM
